These measurements were taken from PubChem BioAssay (NCI).

tested on: M19-MEL melanoma; experiment: NCI tumour cell line growth inhibition, 48 h
MEASURE NAME: TGI (µM)
# value in µM; strip the unit string

- COMPOUND: "O/N=C1/C(=C/c2ccc(Cl)cc2)CCCC1C(NO)c1ccc(Cl)cc1 (stereo not given)"
  TGI [µM]: 54.7

Supply reported TGI belonging to this compound: COc1cc(C2c3cc4c(cc3[C@@H](Nc3ccc(N5CCOCC5)cc3)C3COC(=O)[C@H]23)OCO4)cc(OC)c1O (stereo not given in full) 22.8

Give reported TGI value for O=C(Nc1ccccc1)OCc1nc2c([nH]1)C(=O)C=CC2=O 29.5
